protocol text: Antiangiogenic activity in bovine CVEC cell assessed as inhibition of Sar9-SP-sulfone-induced proliferation after 48 hrs by microscopic analysis
Assay type: functional, cell-based
condition description: Bos taurus
pIC50: −log10 of the molar value.
observable: pIC50

>>> obs_value("COc1ccccc1CNC(=O)c1c(-c2ccccc2)ccnc1C")
"< 6.00"

---

assayed system: Substance-P receptor (Homo sapiens)
Sequence (P25103 whole entry): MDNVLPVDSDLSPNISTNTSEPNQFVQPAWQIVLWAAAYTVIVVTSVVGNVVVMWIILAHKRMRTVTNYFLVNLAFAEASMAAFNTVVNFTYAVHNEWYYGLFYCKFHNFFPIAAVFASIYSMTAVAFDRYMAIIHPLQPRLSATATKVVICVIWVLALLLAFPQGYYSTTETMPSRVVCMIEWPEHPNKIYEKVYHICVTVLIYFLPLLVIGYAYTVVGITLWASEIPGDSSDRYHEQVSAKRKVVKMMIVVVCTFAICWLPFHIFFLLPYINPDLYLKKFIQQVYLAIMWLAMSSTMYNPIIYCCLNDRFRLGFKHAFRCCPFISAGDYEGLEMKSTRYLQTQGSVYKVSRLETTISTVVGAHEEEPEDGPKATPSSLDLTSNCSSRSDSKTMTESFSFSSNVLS
protocol text: Displacement of [125I]BH-SP from human recombinant NK1 receptor expressed in CHO cells after 90 mins
pIC50: −log10 of the molar value.
Label rule met when pIC50 is at or above 7; anything below gets rule not met.

>>> cat("O=C(NCc1cc(C(F)(F)F)cc(C(F)(F)F)c1)c1c(CO)nc2ccccc2c1-c1ccccc1")
"rule not met"
>>> cat("Cc1nc2ccccc2c(-c2ccccc2)c1C(=O)NCc1cc(C(F)(F)F)cc(C(F)(F)F)c1")
"rule not met"
>>> cat("Cc1nccc(-c2ccccc2)c1C(=O)NCc1cc(C(F)(F)F)cc(C(F)(F)F)c1")
"rule not met"
>>> cat("Cc1nc(N2CCN(C)CC2)cc(-c2ccccc2)c1C(=O)NCc1cc(C(F)(F)F)cc(C(F)(F)F)c1")
"rule met"
>>> cat("Cc1c(C(=O)N(C)Cc2cc(C(F)(F)F)cc(C(F)(F)F)c2)c(-c2ccccc2)cc[n+]1[O-]")
"rule met"
>>> cat("Cc1nc(Cl)cc(-c2ccccc2)c1C(=O)NCc1cc(C(F)(F)F)cc(C(F)(F)F)c1")
"rule not met"
>>> cat("CN(Cc1cc(C(F)(F)F)cc(C(F)(F)F)c1)C(=O)c1c(CO)nc2ccccc2c1-c1ccccc1")
"rule met"
>>> cat("Cc1c(C(=O)NCc2cc(C(F)(F)F)cc(C(F)(F)F)c2)c(-c2ccccc2)cc2nnnn12")
"rule not met"
>>> cat("Cc1cc(-c2ccccc2)c(C(=O)N(C)Cc2cc(C(F)(F)F)cc(C(F)(F)F)c2)c(C)n1")
"rule met"
>>> cat("Cc1nc2ccccc2c(-c2ccccc2)c1C(=O)N(C)Cc1cc(C(F)(F)F)cc(C(F)(F)F)c1")
"rule met"
>>> cat("Cc1nc(N2CCN(C)CC2)cc(-c2ccccc2)c1C(=O)N(C)Cc1cc(C(F)(F)F)cc(C(F)(F)F)c1")
"rule met"

Data provenance is ChEMBL document CHEMBL1765014.
